B1: DCAF4 (parent)
chain: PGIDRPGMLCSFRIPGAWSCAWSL

variants of: B1; test: protein stability index of a GFP-peptide fusion (GPS, HEK-293T) (PSI 1-6); higher = more stable; details: c terminus: a fixed tail appended;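 note: lentivirally expressed fusions sorted by FACS into six bins by GFP to DsRed ratio, PSI derived from sequencing read proportions per bin multiplied by bin number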
Below, each entry is listed alongside its reported protein stability index.

For orientation, consider the following solved cases.
>>> result("M8N")
2.11
>>> result("R13V")
2.94
>>> result("M8L")
3.01
>>> result("G2I")
2.26
>>> result("S23N")
2.36
>>> result("R13H")
2.34

Lookup: Value lookup for protein stability index; key = D4I
Found: 3.29

Lookup: Value lookup for protein stability index; key = G7Q
Found: 2.63

Lookup: Value lookup for protein stability index; key = P6Y
Found: 3.44

Lookup: Value lookup for protein stability index; key = R5V
Found: 1.94

Lookup: Value lookup for protein stability index; key = W22E
Found: 2.01

The reported numbers originate from the supplement of paper PMC10567573.
